Please go through the items and note down their TI (CC50/EC50) HBV.
# Tested on: HBV
# experimentalParameters: therapeutic index at the EC50, HepG2

Lab note: measured TI (CC50/EC50) HBV of CCCCCCCCCCCCSSCCOP(=O)(O)CO[C@H](C)Cn1cnc2c(N)ncnc21.N [12b] was >30

Recorded result, CCCCCCCCCCCCCCCCSSCCOP(=O)(O)CO[C@H](C)Cn1cnc2c(N)ncnc21.N [12d] , TI (CC50/EC50) HBV: >1200

Just so you know, measured TI (CC50/EC50) HBV for CCCCCCCCCCSSCCOP(=O)(O)CO[C@H](C)Cn1cnc2c(N)ncnc21.N [12a] came out at >1

For this molecule ( C[C@H](Cn1cnc2c(N)ncnc21)OCP(=O)(O)OCCS ), measured TI (CC50/EC50) HBV is >2.4

response.value for C[C@H](Cn1cnc2c(N)ncnc21)OCP(=O)(O)OCCSSCCO (field: TI (CC50/EC50) HBV) = >8.6

# TI (CC50/EC50) HBV of CCCCCCCCCCCCCCSSCCOP(=O)(O)CO[C@H](C)Cn1cnc2c(N)ncnc21.N [12c] = >56

// field: TI (CC50/EC50) HBV; key: CCCCCCCCCCCCCCCCCCSSCCOP(=O)(O)CO[C@H](C)Cn1cnc2c(N)ncnc21.N [12e] ; value = >50
